System: HeLa
Assay: Inhibition of miR-17-5p expression in human HeLa cells at 10 uM after 48 hrs by qRT-PCR analysis
Type: functional, cell-based
The source made the active and inactive calls. The rule behind the calls is not given here.
property_measured: inhibition

COc1ccc(NC(=O)c2ccc(OC)cc2)cc1 : inactive
COc1ccc(C(=O)Nc2ccccc2)cc1 : inactive
O=C(NCCC1=CCCCC1)c1ccc(O)c(O)c1 : inactive
COc1ccc(C(=O)NCCC2=CCCCC2)cc1OC : inactive

----------
System: HeLa
Experiment: Inhibition of miR-21 expression in human HeLa cells at 10 uM after 48 hrs by qRT-PCR analysis
Assay type: functional
property_measured: inhibition at 10 µM (%)
All answers are understood in %, so give the number only.

COc1ccc(NC(=O)c2ccc(OC)cc2)cc1 : 61

Give recorded inhibition at 10 µM. `COc1ccc(C(=O)Nc2ccccc2)cc1` 43

Give recorded inhibition at 10 µM. `O=C(NCCC1=CCCCC1)c1ccc(O)c(O)c1` 42

Give recorded inhibition at 10 µM. `COc1ccc(C(=O)NCCC2=CCCCC2)cc1OC` 17
